test.name: melting temperature; fluorescence melt of hairpins on a sequencing array, two-state fit, raised by 9.35 °C to match UV melts
study.conditions: sodium 0.088 M
Entries whose Tm is below 50 °C take t; entries at or above 50 °C take f.

These recorded examples may help you get a feel for the data.
monomer_sequence="GCAGCACGAAAGTGTTGC (((.(((....))).)))" category=f
monomer_sequence="CGCTTCGGAAACGAGGCG (((.(((....))).)))" category=f
monomer_sequence="GTCGCCGAAAGGCACGAC ((((((....)))..)))" category=t
monomer_sequence="CGGCCGGAAACGGGCCCG ((((((....)))..)))" category=t
monomer_sequence="GCGAAGCGAAAGCCTGGC ((.(.((....)).).))" category=t

Qu. Is Tm of GATGTAGGAAACTACATC (((((((....))))))) strictly below 50 °C?
Ans. f

Qu. Is Tm of GTAAGGCGAAAGCCTAC (((.(((....)))))) strictly below 50 °C?
Ans. t

Qu. Is Tm of GGCGCAGGAAACTACGCC ((((.((....)).)))) strictly below 50 °C?
Ans. f

Qu. Is Tm of GTAGACGAAAGTCATAC ((((((....))).))) strictly below 50 °C?
Ans. t
